- System: Entamoeba histolytica
- measurement-description: Antiamoebic activity against trophozoite stage of Entamoeba histolytica HM-1:IMSS assessed as parasite growth inhibition after 72 hr by microdilution assay
- Assay type: functional, organism-based
Define the label as class 1 when IC50 is strictly less than 3 µM and as class 0 in all remaining cases.

CCCN(CCC)C(=S)N1CCC(c2cccc(Br)c2)=N1 = class 1
CCN(CC)C(=S)N1CCC(c2cccc(Br)c2)=N1 = class 1
S=C(N1CCC(Cc2ccccc2)CC1)N1CCC(c2cccc(Br)c2)=N1 = class 1
CC1CCN(C(=S)N2CCC(c3cccc(Cl)c3)=N2)CC1 = class 1
CCCNC(=S)N1CCC(c2cccc(Br)c2)=N1 = class 0

Identify whether the compound "CCCCNC(=S)N1CCC(c2cccc(Br)c2)=N1" records IC50 below 3 µM.
class 0

Identify whether the compound "CCN(CC)C(=S)N1CCC(c2cccc(Cl)c2)=N1" records IC50 below 3 µM.
class 1

Identify whether the compound "S=C(N1CCN(c2ccccc2)CC1)N1CCC(c2cccc(Br)c2)=N1" records IC50 below 3 µM.
class 1

----------
- System: Entamoeba histolytica
- measurement-description: Antiamoebic activity against trophozoite stage of Entamoeba histolytica HM-1:IMSS assessed as parasite growth inhibition after 72 hr by microdilution assay
- Type: functional, organism-based
endpoint-label: pIC50
Hey, just a heads up that pIC50 is the negative log base 10 of the concentration in molar.

Consider the following illustrative entries.
CCCCN(C)C(=S)N1CCC(c2cccc(Br)c2)=N1 = 5.62
S=C(NCc1ccccc1Cl)N1CCC(c2ccccc2)=N1 = 5.12
S=C(NC1CCCCCCC1)N1CCC(c2ccccc2)=N1 = 5.60
CCCCNC(=S)N1CCC(c2ccccc2)=N1 = 4.63
CCN(CC)C(=S)N1CCC(c2ccccc2)=N1 = 5.38

Continue with the compound presented below.
Please give the documented pIC50 of "CCCN(CCC)C(=S)N1CCC(c2cccc(Cl)c2)=N1"
6.22

----------
# IC50 annotations
- Test system: Entamoeba histolytica
- measurement-description: Antiamoebic activity against trophozoite stage of Entamoeba histolytica HM-1:IMSS assessed as parasite growth inhibition after 72 hr by microdilution assay
- Format: functional, organism-based
API: value field is a number in µM; no unit string.

Consider the following illustrative entries.
S=C(NCc1ccccc1Cl)N1CCC(c2cccc(Br)c2)=N1 = 2.6
S=C(NC1CCCC1)N1CCC(c2ccccc2)=N1 = 6.5
CC(C)NC(=S)N1CCC(c2ccccc2)=N1 = 23

Continue with the compound presented below.
Please give the documented IC50 of "S=C(NC1CCCCCCC1)N1CCC(c2cccc(Cl)c2)=N1"
1.5

----------
- Test system: Entamoeba histolytica
- measurement-description: Antiamoebic activity against trophozoite stage of Entamoeba histolytica HM-1:IMSS assessed as parasite growth inhibition after 72 hr by microdilution assay
- Assay type: functional, organism-based
# IC50 annotations
API: value field is a number in µM; no unit string.

Consider the following illustrative entries.
S=C(NC1CCCC1)N1CCC(c2cccc(Br)c2)=N1 = 4.2
S=C(NC1CCCCC1)N1CCC(c2ccccc2)=N1 = 5.2
CCCCNC(=S)N1CCC(c2cccc(Cl)c2)=N1 = 12.3
CC1CCN(C(=S)N2CCC(c3ccccc3)=N2)CC1 = 4.8
CC(C)/N=C(\S)N1CCC(c2cccc(Br)c2)=N1 = 15.2

Please give the documented IC50 of "S=C(N1CCN(c2ccccc2)CC1)N1CCC(c2cccc(Cl)c2)=N1"
1.2

Please give the documented IC50 of "CC(C)CNC(=S)N1CCC(c2cccc(Cl)c2)=N1"
5

Please give the documented IC50 of "CC(C)CNC(=S)N1CCC(c2ccccc2)=N1"
11.2

Please give the documented IC50 of "S=C(N1CCC(Cc2ccccc2)CC1)N1CCC(c2ccccc2)=N1"
2.3

Please give the documented IC50 of "CC(C)NC(=S)N1CCC(c2cccc(Cl)c2)=N1"
12.2

Please give the documented IC50 of "S=C(N1CCN(c2ccccc2)CC1)N1CCC(c2ccccc2)=N1"
3.1

Please give the documented IC50 of "S=C(NC1CCCCC1)N1CCC(c2cccc(Cl)c2)=N1"
2.4

Please give the documented IC50 of "CCCCN(C)C(=S)N1CCC(c2cccc(Cl)c2)=N1"
0.7

Please give the documented IC50 of "S=C(NC1CCCCC1)N1CCC(c2cccc(Br)c2)=N1"
3.1

Please give the documented IC50 of "S=C(NCc1ccccc1Cl)N1CCC(c2cccc(Cl)c2)=N1"
2.2

Please give the documented IC50 of "CC1CCN(C(=S)N2CCC(c3cccc(Br)c3)=N2)CC1"
3.6
